Origin of measurements: patent US20230416363A1

target: T1, hPD-1-his (human, UniProt Q15116 25-167); experiment: SPR, Exp. 1
T1 construct: domain: IgV domain; monomer in solution; biotin-labelled where captured by streptavidin; also called biotin-hPD-1-his
T1 sequence (Q15116 other isoform, or with tags, fused parts or gaps limits assumed): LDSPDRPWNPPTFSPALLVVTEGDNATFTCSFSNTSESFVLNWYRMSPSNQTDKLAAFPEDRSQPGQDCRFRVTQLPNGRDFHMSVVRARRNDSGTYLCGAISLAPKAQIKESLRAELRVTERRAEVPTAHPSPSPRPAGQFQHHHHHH
quantity.kind: Kd

INSERT INTO measurements (binder, quantity_kind, result) VALUES
  ('31B1 (antibody, V domains shown, also called 780_38; 33B1 and 31B2 (apparent misprints)) VH: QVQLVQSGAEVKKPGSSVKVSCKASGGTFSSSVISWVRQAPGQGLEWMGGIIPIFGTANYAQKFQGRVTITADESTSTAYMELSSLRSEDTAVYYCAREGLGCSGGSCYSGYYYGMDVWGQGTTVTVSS VL: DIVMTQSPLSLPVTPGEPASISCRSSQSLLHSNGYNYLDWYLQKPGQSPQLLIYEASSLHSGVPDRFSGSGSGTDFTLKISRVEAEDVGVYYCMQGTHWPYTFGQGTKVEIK', 'Kd', '< 0.036 nM');
